Values from ChEMBL document CHEMBL4825779

assay: Haemolytic activity against human erythrocytes at 0.2 to 400 uM after 1 hr; assay type: ADME, cell-based, Erythrocyte; conditions: dose 0.2-400 µM, read-out: Activity
observation_type: hemolysis at 1 h, up to 400 µM

[in] Suppose we examine the molecule "CCOC(=O)c1ccc(/N=N/N(C)C(=O)NCCSc2ccc(O)cc2)cc1" ; what hemolysis at 1 h, up to 400 µM value has been reported?
[out] < 1%

###

assay: Half life in 80% human plasma by HPLC analysis; assay type: ADME, cell-free
# if value of half-life reaches 30 h, tag TRUE; if it stays below, tag FALSE

Look over these answered cases.
[
  {
    "smi": "CCOC(=O)c1ccc(/N=N/N(C)C(=O)CCSc2ccc(O)cc2)cc1",
    "category_label": "FALSE"
  },
  {
    "smi": "CC(=O)c1ccc(/N=N/N(C)C(=O)CCSc2ccc(O)cc2)cc1",
    "category_label": "FALSE"
  },
  {
    "smi": "Cc1ccc(/N=N/N(C)C(=O)CCSc2ccc(O)cc2)cc1",
    "category_label": "FALSE"
  },
  {
    "smi": "CN(/N=N/c1ccc(C#N)cc1)C(=O)CCSc1ccc(O)cc1",
    "category_label": "FALSE"
  },
  {
    "smi": "CN(/N=N/c1ccc(Br)cc1)C(=O)NCCSc1ccc(O)cc1",
    "category_label": "TRUE"
  }
]

[in] // inclusive: half-life at least 30 h? input: "CC(=O)c1ccc(/N=N/N(C)C(=O)NCCSc2ccc(O)cc2)cc1"
[out] TRUE

[in] // inclusive: half-life at least 30 h? input: "CN(/N=N/c1ccc(C#N)cc1)C(=O)NCCSc1ccc(O)cc1"
[out] TRUE

[in] // inclusive: half-life at least 30 h? input: "Cc1ccc(/N=N/N(C)C(=O)NCCSc2ccc(O)cc2)cc1"
[out] TRUE

[in] // inclusive: half-life at least 30 h? input: "CN(/N=N/c1ccc(Br)cc1)C(=O)CCSc1ccc(O)cc1"
[out] FALSE

###

Reported half-life values for the following molecules.
assay: Half life of the compound in PBS buffer at pH 7.4 by HPLC analysis; assay type: physicochemical

[
  {
    "smi": "CN(/N=N/c1ccc(C#N)cc1)C(=O)NCCSc1ccc(O)cc1",
    "result": "> 240 h"
  },
  {
    "smi": "CCOC(=O)c1ccc(/N=N/N(C)C(=O)CCSc2ccc(O)cc2)cc1",
    "result": "130 h"
  },
  {
    "smi": "CN(/N=N/c1ccc(C#N)cc1)C(=O)CCSc1ccc(O)cc1",
    "result": "86.4 h"
  },
  {
    "smi": "Cc1ccc(/N=N/N(C)C(=O)NCCSc2ccc(O)cc2)cc1",
    "result": "> 240 h"
  },
  {
    "smi": "CN(/N=N/c1ccc(Br)cc1)C(=O)CCSc1ccc(O)cc1",
    "result": "106 h"
  }
]

[in] Suppose we examine the molecule "CCOC(=O)c1ccc(/N=N/N(C)C(=O)NCCSc2ccc(O)cc2)cc1" ; what half-life value has been reported?
[out] > 240 h

[in] Suppose we examine the molecule "CC(=O)c1ccc(/N=N/N(C)C(=O)NCCSc2ccc(O)cc2)cc1" ; what half-life value has been reported?
[out] > 240 h

[in] Suppose we examine the molecule "Cc1ccc(/N=N/N(C)C(=O)CCSc2ccc(O)cc2)cc1" ; what half-life value has been reported?
[out] 101 h

[in] Suppose we examine the molecule "CC(=O)c1ccc(/N=N/N(C)C(=O)CCSc2ccc(O)cc2)cc1" ; what half-life value has been reported?
[out] 139 h

[in] Suppose we examine the molecule "CN(/N=N/c1ccc(Br)cc1)C(=O)NCCSc1ccc(O)cc1" ; what half-life value has been reported?
[out] > 240 h
